Target: Recombinant human his-tagged IGF 1R extracellular domain protein (human) (UniProt P08069)
Assay: SPR, captured IgG, IGF-1R ECD-his analyte, dissociation pH 7.4
measured.metric: log10 koff (log10 of the value in s⁻¹)
# log10 transformed; quantity=koff; unit=s⁻¹

Input: What does the data say about its log10 koff? Entry: VRDN-02500 (antibody, human IgG1, kappa, V domains shown) VH: EVQLVQSGGGLVKPGGSLRLSCAASGFTFSSFAMHWVRQAPGKGLEWISVIDTRGATYYADSVKGRFTISRDNAKNSLYLQMNSLRAEDTAVYYCARLGNFYYGMDVWGQGTTVTVSS VL: EIVLTQSPGTLSVSPGERATLSCRASQSIGSSLHWYQQKPGQAPRLLIKYASQSLSGIPDRFSGSGSGTDFTLTISRLEPEDFAVYYCHQSSRLPHTFGQGTKVEIKR
Output: -4.41

Input: What does the data say about its log10 koff? Entry: VRDN-02566 (antibody, V domains shown) VH: EVQLVQSGGGLVKPGGSLRLSCAASGFTFSSFAMHWVRQAPGKGLEWISVIDTRGATYYADSVKGRFTISRDNAKNSLYLQMNSLRAEDTAVYYCHRLGNFYYGHDVWGQGTTVTVSS VL: EIVLTQSPGTLSVSPGERATLSCRASQSIGSSLHWYQQKPGQAPRLLIKYASQSLSGIPDRFSGSGSGTDFTLTISRLEPEDFAVYYCHQSSRLPHTFGQGTKVEIK
Output: -1.71

Input: What does the data say about its log10 koff? Entry: VRDN-02556 (antibody, V domains shown) VH: EVQLVQSGGGLVKPGGSLRLSCAASGFTFSSFAMHWVRQAPGKGLEWISVIDTRGATYYADSVKGRFTISRDNAKNSLYLQMNSLRAEDTAVYYCARLGNFYYHMDVWGQGTTVTVSS VL: EIVLTQSPGTLSVSPGERATLSCRASQSIGSSLHWYQQKPGQAPRLLIKHASQSLSGIPDRFSGSGSGTDFTLTISRLEPEDFAVYYCHQSSRLPHTFGQGTKVEIK
Output: -1.90

Input: What does the data say about its log10 koff? Entry: VRDN-02525 (antibody, V domains shown) VH: EVQLVQSGGGLVKPGGSLRLSCAASGFTFSSFAMHWVRQAPGKGLEWISVIDTRGATYYADSVKGRFTISRDNAKNSLYLQMNSLRAEDTAVYYCARLGNFYYGHDVWGQGTTVTVSS VL: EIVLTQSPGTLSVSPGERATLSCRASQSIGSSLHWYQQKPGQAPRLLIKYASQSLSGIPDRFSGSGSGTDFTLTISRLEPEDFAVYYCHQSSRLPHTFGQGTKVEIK
Output: -6.00

Input: What does the data say about its log10 koff? Entry: VRDN-02535 (antibody, V domains shown) VH: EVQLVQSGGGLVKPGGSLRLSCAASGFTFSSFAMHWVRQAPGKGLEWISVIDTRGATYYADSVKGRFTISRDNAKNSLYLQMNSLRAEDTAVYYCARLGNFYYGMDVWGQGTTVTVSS VL: EIVLTQSPGTLSVSPGERATLSCRASQSIGHSLHWYQQKPGQAPRLLIKYASQSLSGIPDRFSGSGSGTDFTLTISRLEPEDFAVYYCHQSSRLPHTFGQGTKVEIK
Output: -4.39
